Examples of binders with documented interaction score follow.
- system: T1, O9-bS
- T1 chain: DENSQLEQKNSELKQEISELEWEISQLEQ
- procedureDetails: two-hybrid library CCNG1;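 also: natural log of median RNA to DNA barcode read ratio; higher means stronger binding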
// no unit, no text: just the number

Worked examples, 3 binders total:
binder	interaction score
DEISQLEQKISELKQKNSELKWKNSQLKQ [O12-bS]	-0.617
DKNSQLKQKISELKQKNSELKWEISQLEQ [O13-bS]	-1.08
DKISQLKQEISELEQENSELEWENSQLEQ [O11-bS]	-2.56

q: Give the value of interaction score reported for the following: DENSQLEQKNSELKQKISELKWKISQLKQ [O2-bS]
a: -1.59

q: Give the value of interaction score reported for the following: DEISQLEQENSELEQEISELEWKNSQLKQ [O8-bS]
a: -0.376
